Experiment: 7-day repeated-dose TK in dogs
Type: in vivo
Conditions: male, beagle, dog, plasma, po, 200 mg/kg/day, day 7, PO 200 mg/kg/day, M
test.readout: Tmax (h)
The answer is to be given in h; state only the numeric part.

For record C[C@]12CC[C@@H]3c4ccc(B(O)O)cc4C[C@@H](CCCCCCCCC[S+]([O-])CCCC(F)(F)C(F)(F)F)[C@H]3[C@@H]1CC[C@@H]2O (stereo partly shown) the listed Tmax is 2

====

Test: 4-week repeat-dose toxicity/TK study in rats
Format: in vivo, Sprague Dawley rats
Conditions: male, Sprague Dawley (Crl: CD (SD)), rat, plasma, po, 400 mg/kg/day, day 1, PO 400 mg/kg/day, Male
test.readout: AUC(0-t)
Just so you know, I need the unit written after the number.

For record C[C@]12CC[C@@H]3c4ccc(B(O)O)cc4C[C@@H](CCCCCCCCC[S+]([O-])CCCC(F)(F)C(F)(F)F)[C@H]3[C@@H]1CC[C@@H]2O (stereo partly shown) [ZB716, fulvestrant-3-boronic acid] the listed AUC(0-t) is 52400 ng·h/mL

====

Assay: 7-day repeated-dose PK in rats
Type: in vivo, Sprague Dawley rats
Conditions: female, Sprague Dawley, rat, plasma, po, 100 mg/kg/day, day 1, PO 100 mg/kg/day, F; read-out: Tmax (median)
test.readout: Tmax (h)
The answer is to be given in h; state only the numeric part.

For record C[C@]12CC[C@@H]3c4ccc(B(O)O)cc4C[C@@H](CCCCCCCCC[S+]([O-])CCCC(F)(F)C(F)(F)F)[C@H]3[C@@H]1CC[C@@H]2O (stereo partly shown) [ZB716, fulvestrant-3-boronic acid] the listed Tmax is 1

====

Test: 7-day repeated-dose TK in dogs
Type: in vivo
Conditions: female, beagle, dog, plasma, po, 100 mg/kg/day, day 1, PO 100 mg/kg/day, F
test.readout: AUC(0-t) (ng·h/mL)
The answer is to be given in ng·h/mL; state only the numeric part.

For record C[C@]12CC[C@@H]3c4ccc(B(O)O)cc4C[C@@H](CCCCCCCCC[S+]([O-])CCCC(F)(F)C(F)(F)F)[C@H]3[C@@H]1CC[C@@H]2O (stereo partly shown) the listed AUC(0-t) is 55600

====

Experiment: Plasma protein binding by equilibrium dialysis, mouse
Type: in vitro ADME
Details: plasma (EDTA-K2 as anticoagulant), pH 7.4, 10 μM
test.readout: recovery at 6 h, 10 μM

For record C[C@]12CC[C@@H]3c4ccc(B(O)O)cc4C[C@@H](CCCCCCCCC[S+]([O-])CCCC(F)(F)C(F)(F)F)[C@H]3[C@@H]1CC[C@@H]2O (stereo partly shown) the listed recovery at 6 h, 10 μM is < 95%

====

Assay: 4-week repeat-dose toxicity/TK study in dogs
Type: in vivo, beagle dogs
Details: male, beagle, dog, plasma, po, 200 mg/kg/day, day 28, PO 200 mg/kg/day, M
test.readout: Cmax (ng/mL)
The answer is to be given in ng/mL; state only the numeric part.

For record C[C@]12CC[C@@H]3c4ccc(B(O)O)cc4C[C@@H](CCCCCCCCC[S+]([O-])CCCC(F)(F)C(F)(F)F)[C@H]3[C@@H]1CC[C@@H]2O (stereo partly shown) [ZB716, fulvestrant-3-boronic acid] the listed Cmax is 2130

====

Assay: 4-week repeat-dose toxicity/TK study in dogs
Assay type: in vivo, beagle dogs
Conditions: male, beagle, dog, plasma, po, 25 mg/kg/day, day 1, PO 25 mg/kg/day, M
test.readout: Tmax (min)
The answer is to be given in min; state only the numeric part.

For record C[C@]12CC[C@@H]3c4ccc(B(O)O)cc4C[C@@H](CCCCCCCCC[S+]([O-])CCCC(F)(F)C(F)(F)F)[C@H]3[C@@H]1CC[C@@H]2O (stereo partly shown) the listed Tmax is 30

====

Assay: 4-week repeat-dose toxicity/TK study in dogs
Type: in vivo, beagle dogs
Details: male, beagle, dog, plasma, po, 25 mg/kg/day, day 28, PO 25 mg/kg/day, M
test.readout: Tmax (h)
The answer is to be given in h; state only the numeric part.

For record C[C@]12CC[C@@H]3c4ccc(B(O)O)cc4C[C@@H](CCCCCCCCC[S+]([O-])CCCC(F)(F)C(F)(F)F)[C@H]3[C@@H]1CC[C@@H]2O (stereo partly shown) [ZB716, fulvestrant-3-boronic acid] the listed Tmax is 1

====

Test: Metabolic stability in rat hepatocytes
Type: in vitro ADME
Conditions: read-out: Scaled-Up Clint
Experimental: Hepatocytes of humans (#X008001), dogs (#M00205), rats (#M00005), and mice (#M005052) were purchased from BioIVT, NY, USA. Monkey hepatocytes were procured from RILD, Shanghai, China. The metabolic stability of ZB716 in human, monkey, dog, rat and mouse hepatocytes was investigated by incubating ZB716 with human, monkey, dog, rat, and mouse hepatocytes (0.5 × 10^6 cells/mL), or with incubation medium only. parent disappearance vs. incubation time curve. Scaled-up Clint = kV/N × Scaling Factor […]
test.readout: CLint scaled at 1 μM (mL/min/kg)
The answer is to be given in mL/min/kg; state only the numeric part.

For record C[C@]12CC[C@@H]3c4ccc(B(O)O)cc4C[C@@H](CCCCCCCCC[S+]([O-])CCCC(F)(F)C(F)(F)F)[C@H]3[C@@H]1CC[C@@H]2O (stereo partly shown) [ZB716, fulvestrant-3-boronic acid] the listed CLint scaled at 1 μM is 228

====

Assay: 4-week repeat-dose toxicity/TK study in rats
Format: in vivo, Sprague Dawley rats
Conditions: male, Sprague Dawley (Crl: CD (SD)), rat, plasma, po, 25 mg/kg/day, day 1, PO 25 mg/kg/day, Male
test.readout: Cmax (ng/mL)
The answer is to be given in ng/mL; state only the numeric part.

For record C[C@]12CC[C@@H]3c4ccc(B(O)O)cc4C[C@@H](CCCCCCCCC[S+]([O-])CCCC(F)(F)C(F)(F)F)[C@H]3[C@@H]1CC[C@@H]2O (stereo partly shown) the listed Cmax is 1040

====

Test system: CYP1A2
Experiment: CYP induction (enzyme activity) in cryopreserved human hepatocytes, CYP1A2
Details: human, plated cryopreserved human hepatocytes, Fold Induction, donor one, 0.15 µM
test.readout: fold induction at 72 h, 0.15 µM
Enter the number alone.

The recorded fold induction at 72 h, 0.15 µM with CYP1A2 for C[C@]12CC[C@@H]3c4ccc(B(O)O)cc4C[C@@H](CCCCCCCCC[S+]([O-])CCCC(F)(F)C(F)(F)F)[C@H]3[C@@H]1CC[C@@H]2O (stereo partly shown) was 1.24

====

Experiment: Single-dose PK and bioavailability in dogs
Format: in vivo
Settings: female, beagle, dog, plasma; PO 6 mg/kg/day vs IV 2 mg/kg/day, F
test.readout: bioavailability (%)
The answer is to be given in %; state only the numeric part.

For record C[C@]12CC[C@@H]3c4ccc(B(O)O)cc4C[C@@H](CCCCCCCCC[S+]([O-])CCCC(F)(F)C(F)(F)F)[C@H]3[C@@H]1CC[C@@H]2O (stereo partly shown) the listed bioavailability is 6.74

====

Assay: 4-week repeat-dose toxicity/TK study in rats
Assay type: in vivo, Sprague Dawley rats
Details: male, Sprague Dawley (Crl: CD (SD)), rat, plasma, po, 100 mg/kg/day, day 1, PO 100 mg/kg/day, Male
test.readout: Cmax (ng/mL)
The answer is to be given in ng/mL; state only the numeric part.

For record C[C@]12CC[C@@H]3c4ccc(B(O)O)cc4C[C@@H](CCCCCCCCC[S+]([O-])CCCC(F)(F)C(F)(F)F)[C@H]3[C@@H]1CC[C@@H]2O (stereo partly shown) the listed Cmax is 1870

====

Assay: 7-day repeated-dose TK in dogs
Format: in vivo
Settings: female, beagle, dog, plasma, po, 200 mg/kg/day, day 7, PO 200 mg/kg/day, F
test.readout: AUC(0-t) (ng·h/mL)
The answer is to be given in ng·h/mL; state only the numeric part.

For record C[C@]12CC[C@@H]3c4ccc(B(O)O)cc4C[C@@H](CCCCCCCCC[S+]([O-])CCCC(F)(F)C(F)(F)F)[C@H]3[C@@H]1CC[C@@H]2O (stereo partly shown) [ZB716, fulvestrant-3-boronic acid] the listed AUC(0-t) is 46700

====

Assay: Bidirectional permeability across Caco-2 cell monolayers
Type: in vitro ADME
Conditions: human; Caco-2, 15 μM
test.readout: Papp A→B at 120 min, 15 μM

For record C[C@]12CC[C@@H]3c4ccc(B(O)O)cc4C[C@@H](CCCCCCCCC[S+]([O-])CCCC(F)(F)C(F)(F)F)[C@H]3[C@@H]1CC[C@@H]2O (stereo partly shown) [ZB716, fulvestrant-3-boronic acid] the listed Papp A→B at 120 min, 15 μM is 0.188 ×10⁻⁶ cm/s

====

Test: Plasma protein binding by equilibrium dialysis, human
Assay type: in vitro ADME
Conditions: plasma (EDTA-K2 as anticoagulant), pH 7.4, 10 μM
Method: The in vitro binding of ZB716 to plasma proteins was determined by equilibrium dialysis technique in mouse, rat, dog, monkey, and human plasma (EDTA-K2 as anticoagulant), over the concentration range of 0.1–10 μM. The free concentration of ZB716 was below the lower limit of quantitation at 0.1, 1, and 10 μM in human, monkey, dog, rat, and mouse plasma. The equilibrium dialysis method was used to investigate the in vitro binding of ZB716 to human, monkey, dog, rat, and mouse plasma proteins. […]
test.readout: recovery at 6 h, 10 μM

For record C[C@]12CC[C@@H]3c4ccc(B(O)O)cc4C[C@@H](CCCCCCCCC[S+]([O-])CCCC(F)(F)C(F)(F)F)[C@H]3[C@@H]1CC[C@@H]2O (stereo partly shown) the listed recovery at 6 h, 10 μM is < 74.7%

Hey, just so you know, these numbers are from paper PMC8400955.
